- EXPERIMENTAL_DETAILS: Half life in Sprague-Dawley rat at 20 mg/kg, po by LC-MS/MS analysis
- Format: ADME, organism-based
- CONDITION_DETAILS: in vivo
half-life less than 2 h is 1.0; half-life greater than or equal to 2 h is 0.0.

Solved cases below.
[[record]]
test_smiles = "Cc1nnc(C(C)C)n1[C@@H]1C[C@H]2CC[C@@H](C1)N2CC[C@H](NC(=O)C1CCCC1)c1cccs1"
group = 1.0

[[record]]
test_smiles = "Cc1ccc([C@H](CCN2[C@@H]3CC[C@H]2C[C@H](n2c(C)nnc2C(C)C)C3)NC(=O)C2CCC(F)(F)CC2)s1"
group = 0.0

[[record]]
test_smiles = "Cc1nnc(C(C)C)n1[C@@H]1C[C@H]2CC[C@@H](C1)N2CC[C@H](NC(=O)C1CCC(F)(F)CC1)c1cccs1"
group = 0.0

[[record]]
test_smiles = "Cc1nnc(C(C)C)n1[C@@H]1C[C@H]2CC[C@@H](C1)N2CC[C@H](NC(=O)C1CCC(F)(F)CC1)c1ccsc1"
group = 1.0


Query: Hi there! Is half-life for Cc1nnc(C(C)C)n1[C@@H]1C[C@H]2CC[C@@H](C1)N2CC[C@H](NC(=O)C1CCCCC1)c1cccs1 below 2 h, do you know?
Reply: 1.0

---

- EXPERIMENTAL_DETAILS: Tmax in dog at 15 mg/kg, po by LC-MS/MS analysis
- Assay type: ADME, organism-based, Canis lupus familiaris
- CONDITION_DETAILS: in vivo
VALUE_KIND: Tmax (min)
Lab book: enter the figure in min, no units written.

[[record]]
test_smiles = "Cc1nnc(C(C)C)n1[C@@H]1C[C@H]2CC[C@@H](C1)N2CC[C@H](NC(=O)C1CCC(F)(F)CC1)c1ccsc1"
recorded_measurement = 48


// next item, Tmax requested
Query: Item Cc1nnc(C(C)C)n1[C@@H]1C[C@H]2CC[C@@H](C1)N2CC[C@H](NC(=O)C1CCCC1)c1cccs1 has what recorded Tmax?
Reply: 48

---

- TESTED_SYSTEM: Cytochrome P450 3A4 (Homo sapiens, UniProt P08684)
- Sequence (P08684 whole entry): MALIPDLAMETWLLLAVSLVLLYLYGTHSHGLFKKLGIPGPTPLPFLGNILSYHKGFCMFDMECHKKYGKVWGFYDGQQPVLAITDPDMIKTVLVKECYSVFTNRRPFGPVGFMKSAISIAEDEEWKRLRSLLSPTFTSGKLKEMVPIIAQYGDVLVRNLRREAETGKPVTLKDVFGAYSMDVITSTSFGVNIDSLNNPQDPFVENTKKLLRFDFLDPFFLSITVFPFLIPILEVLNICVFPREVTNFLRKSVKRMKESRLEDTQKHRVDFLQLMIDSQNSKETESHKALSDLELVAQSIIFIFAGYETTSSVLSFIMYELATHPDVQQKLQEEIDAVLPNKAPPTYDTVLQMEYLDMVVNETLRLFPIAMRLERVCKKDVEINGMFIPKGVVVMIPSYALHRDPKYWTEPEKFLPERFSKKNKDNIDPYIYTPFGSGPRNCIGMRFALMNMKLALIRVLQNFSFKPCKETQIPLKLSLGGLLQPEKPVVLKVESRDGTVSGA
- EXPERIMENTAL_DETAILS: Inhibition of CYP3A4 (unknown origin) using midazolam as substrate
- Assay type: ADME
VALUE_KIND: IC50 (µM)
Lab book: enter the figure in µM, no units written.

[[record]]
test_smiles = "Cc1nnc(C(C)C)n1[C@@H]1C[C@H]2CC[C@@H](C1)N2CC[C@H](NC(=O)C1CCCCC1)c1cccs1"
tested_system = "Cytochrome P450 3A4 (Homo sapiens, UniProt P08684)"
value_kind = "IC50"
recorded_measurement = 12.3


// next item, IC50 requested
Query: Item Cc1ccc([C@H](CCN2[C@@H]3CC[C@H]2C[C@H](n2c(C)nnc2C(C)C)C3)NC(=O)C2CCC(F)(F)CC2)s1 has what recorded IC50?
Reply: 10.9

---

Reported CC50 at 48 h values for a set of compounds
- EXPERIMENTAL_DETAILS: Cytotoxicity against human TZM-bl cells after 48 hrs by MTT assay
- Type: cell-based

Before answering, review these 5 worked examples.
[[record]]
test_smiles = "Cc1nnc(C(C)C)n1[C@@H]1C[C@H]2CC[C@@H](C1)N2CC[C@H](NC(=O)C1CCC(F)(F)CC1)c1ccsc1"
recorded_measurement = "> 200 µM"

[[record]]
test_smiles = "Cc1nnc(C(C)C)n1[C@@H]1C[C@H]2CC[C@@H](C1)N2CC[C@H](NC(=O)C1CCC(F)(F)CC1)c1csc2ccccc12"
recorded_measurement = "96.1 µM"

[[record]]
test_smiles = "Cc1nnc(C(C)C)n1[C@@H]1C[C@H]2CC[C@@H](C1)N2CC[C@H](NC(=O)C1CCC(F)(F)CC1)c1cccs1"
recorded_measurement = "> 200 µM"

[[record]]
test_smiles = "Cc1nnc(C(C)C)n1[C@@H]1C[C@H]2CC[C@@H](C1)N2CC[C@H](NC(=O)C1CCC(F)(F)CC1)c1ccc(F)s1"
recorded_measurement = "> 200 µM"

[[record]]
test_smiles = "Cc1nnc(C(C)C)n1[C@@H]1C[C@H]2CC[C@@H](C1)N2CC[C@H](NC(=O)C1CCCC1)c1cccs1"
recorded_measurement = "> 200 µM"


Query: Item Cc1nnc(C(C)C)n1[C@@H]1C[C@H]2CC[C@@H](C1)N2CC[C@H](NC(=O)C1CCC(F)(F)CC1)c1cccnc1 has what recorded CC50 at 48 h?
Reply: > 100 µM

Query: Item Cc1nnc(C(C)C)n1[C@@H]1C[C@H]2CC[C@@H](C1)N2CC[C@H](NC(=O)C1CCCCC1)c1cccs1 has what recorded CC50 at 48 h?
Reply: > 200 µM

Query: Item Cc1nnc(C(C)C)n1[C@@H]1C[C@H]2CC[C@@H](C1)N2CC[C@H](NC(=O)C1CCC(F)(F)CC1)c1ccccc1 has what recorded CC50 at 48 h?
Reply: > 200 µM

Query: Item Cc1ccc([C@H](CCN2[C@@H]3CC[C@H]2C[C@H](n2c(C)nnc2C(C)C)C3)NC(=O)C2CCC(F)(F)CC2)s1 has what recorded CC50 at 48 h?
Reply: > 200 µM

---

- EXPERIMENTAL_DETAILS: in vitro
- CONDITION_DETAILS: human, HOS cells
- Description: Therapeutic index, ratio of CC50 for human HOS cells to IC50 for CCR5-dependent HIV1 SF162 infected in human HOS cells
Reported selectivity ratio values for a set of molecules
Give your answer as a number; write no unit.

[[record]]
test_smiles = "Cc1nnc(C(C)C)n1[C@@H]1C[C@H]2CC[C@@H](C1)N2CC[C@H](NC(=O)C1CCCC1)c1cccs1"
recorded_measurement = 25000


Query: Item Cc1nnc(C(C)C)n1[C@@H]1C[C@H]2CC[C@@H](C1)N2CC[C@H](NC(=O)C1CCC(F)(F)CC1)c1cccs1 has what recorded selectivity ratio?
Reply: 28000

Query: Item Cc1nnc(C(C)C)n1[C@@H]1C[C@H]2CC[C@@H](C1)N2CC[C@H](NC(=O)C1CCC(F)(F)CC1)c1ccsc1 has what recorded selectivity ratio?
Reply: 69000

Query: Item Cc1nnc(C(C)C)n1[C@@H]1C[C@H]2CC[C@@H](C1)N2CC[C@H](NC(=O)C1CCCCC1)c1cccs1 has what recorded selectivity ratio?
Reply: 7800

---

- EXPERIMENTAL_DETAILS: Clearance in Sprague-Dawley rat at 10 mg/kg, iv by LC-MS/MS analysis
- Assay type: ADME, organism-based
- CONDITION_DETAILS: in vivo
clearance less than 30 mL/min/kg is True; clearance greater than or equal to 30 mL/min/kg is False.

[[record]]
test_smiles = "Cc1nnc(C(C)C)n1[C@@H]1C[C@H]2CC[C@@H](C1)N2CC[C@H](NC(=O)C1CCC(F)(F)CC1)c1cccs1"
group = "True"


Query: Hi there! Is clearance for Cc1nnc(C(C)C)n1[C@@H]1C[C@H]2CC[C@@H](C1)N2CC[C@H](NC(=O)C1CCCCC1)c1cccs1 below 30 mL/min/kg, do you know?
Reply: False

Query: Hi there! Is clearance for Cc1ccc([C@H](CCN2[C@@H]3CC[C@H]2C[C@H](n2c(C)nnc2C(C)C)C3)NC(=O)C2CCC(F)(F)CC2)s1 below 30 mL/min/kg, do you know?
Reply: False

Query: Hi there! Is clearance for Cc1nnc(C(C)C)n1[C@@H]1C[C@H]2CC[C@@H](C1)N2CC[C@H](NC(=O)C1CCC(F)(F)CC1)c1ccsc1 below 30 mL/min/kg, do you know?
Reply: True

Query: Hi there! Is clearance for Cc1nnc(C(C)C)n1[C@@H]1C[C@H]2CC[C@@H](C1)N2CC[C@H](NC(=O)C1CCCC1)c1cccs1 below 30 mL/min/kg, do you know?
Reply: False

---

- EXPERIMENTAL_DETAILS: in vitro
- CONDITION_DETAILS: human, PBMC
- Description: Therapeutic index, ratio of CC50 for human PBMC to IC50 for CCR5-dependent HIV1 Ba-L infected in human PBMC
Reported selectivity ratio values for a set of compounds
Give your answer as a number; write no unit.

Before answering, review these 3 worked examples.
[[record]]
test_smiles = "Cc1nnc(C(C)C)n1[C@@H]1C[C@H]2CC[C@@H](C1)N2CC[C@H](NC(=O)C1CCCC1)c1cccs1"
recorded_measurement = 5900

[[record]]
test_smiles = "Cc1nnc(C(C)C)n1[C@@H]1C[C@H]2CC[C@@H](C1)N2CC[C@H](NC(=O)C1CCCCC1)c1cccs1"
recorded_measurement = 575

[[record]]
test_smiles = "Cc1nnc(C(C)C)n1[C@@H]1C[C@H]2CC[C@@H](C1)N2CC[C@H](NC(=O)C1CCC(F)(F)CC1)c1ccsc1"
recorded_measurement = 220000


Query: Item Cc1nnc(C(C)C)n1[C@@H]1C[C@H]2CC[C@@H](C1)N2CC[C@H](NC(=O)C1CCC(F)(F)CC1)c1cccs1 has what recorded selectivity ratio?
Reply: 9400

---

A short record of IC50 observed with UniProt:P10635 follows.
Sequence (P10635 whole entry): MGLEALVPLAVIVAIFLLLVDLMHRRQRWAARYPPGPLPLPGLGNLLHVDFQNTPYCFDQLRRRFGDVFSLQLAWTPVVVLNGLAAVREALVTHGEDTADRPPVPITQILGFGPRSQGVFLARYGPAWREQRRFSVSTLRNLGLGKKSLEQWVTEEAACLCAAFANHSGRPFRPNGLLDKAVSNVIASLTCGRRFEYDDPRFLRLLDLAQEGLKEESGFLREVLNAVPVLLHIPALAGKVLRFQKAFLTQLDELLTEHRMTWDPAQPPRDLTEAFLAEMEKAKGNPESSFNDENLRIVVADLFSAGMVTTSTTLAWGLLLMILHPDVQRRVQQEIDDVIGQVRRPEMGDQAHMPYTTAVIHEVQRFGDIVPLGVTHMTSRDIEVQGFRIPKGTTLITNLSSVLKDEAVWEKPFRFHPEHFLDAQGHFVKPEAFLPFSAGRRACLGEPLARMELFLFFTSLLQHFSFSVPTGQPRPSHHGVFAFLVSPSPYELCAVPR
Lab book: enter the figure in µM, no units written.

[[record]]
test_smiles = "Cc1nnc(C(C)C)n1[C@@H]1C[C@H]2CC[C@@H](C1)N2CC[C@H](NC(=O)C1CCCC1)c1cccs1"
value_kind = "IC50"
recorded_measurement = 16.8


Query: Hi! What's the reported IC50 for Cc1nnc(C(C)C)n1[C@@H]1C[C@H]2CC[C@@H](C1)N2CC[C@H](NC(=O)C1CCCCC1)c1cccs1 on UniProt:P10635?
Reply: 15.1
